# pIC50 values compiled below
target-or-system: β5 subunit of human cCP (Homo sapiens, UniProt P20618+P28074)
test-details: Inhibition of β5 activity (RA, IC50), Suc-LLVY-AMC
condition-notes: 30 min pre-incubation, SDS
pIC50: −log10 of the molar value.
reported-property: pIC50

{"compound": "CC(C)C[C@H](NC(=O)CCCCn1c(C#N)nc2ccccc21)B(O)O [Compound 36]", "target-or-system": "β5 subunit of human cCP (Homo sapiens, UniProt P20618+P28074)", "reported-property": "pIC50", "reported-measurement": 5.19}
{"compound": "C=Cc1nc(CC(=O)N[C@@H](CC(C)C)B2O[C@@H]3C[C@@H]4C[C@@H](C4(C)C)[C@]3(C)O2)cs1 [Compound 28]", "target-or-system": "β5 subunit of human cCP (Homo sapiens, UniProt P20618+P28074)", "reported-property": "pIC50", "reported-measurement": 5.09}
{"compound": "CC(C)C[C@H](NC(=O)Cc1ccc2oc(C#N)nc2c1)B1O[C@@H]2C[C@@H]3C[C@@H](C3(C)C)[C@]2(C)O1 [Compound 39]", "target-or-system": "β5 subunit of human cCP (Homo sapiens, UniProt P20618+P28074)", "reported-property": "pIC50", "reported-measurement": 5.44}
{"compound": "CC(C)C[C@H](NC(=O)CCCn1c(C#N)nc2ccccc21)B(O)O [Compound 35]", "target-or-system": "β5 subunit of human cCP (Homo sapiens, UniProt P20618+P28074)", "reported-property": "pIC50", "reported-measurement": 4.80}
{"compound": "CC(C)C[C@H](NC(=O)CCn1c(C#N)nc2ccccc21)B(O)O [Compound 34]", "target-or-system": "β5 subunit of human cCP (Homo sapiens, UniProt P20618+P28074)", "reported-property": "pIC50", "reported-measurement": 5.74}
{"compound": "N#Cc1nc2cccc(O)c2o1 [Compound 13]", "target-or-system": "β5 subunit of human cCP (Homo sapiens, UniProt P20618+P28074)", "reported-property": "pIC50", "reported-measurement": 4.96}
{"compound": "CC(C)C[C@H](NC(=O)CCn1c(C#N)nc2cccc(Cl)c21)B1O[C@@H]2C[C@@H]3C[C@@H](C3(C)C)[C@]2(C)O1 [Compound 38]", "target-or-system": "β5 subunit of human cCP (Homo sapiens, UniProt P20618+P28074)", "reported-property": "pIC50", "reported-measurement": 5.70}
{"compound": "N#Cc1nc2c(O)cccc2o1 [Compound 10]", "target-or-system": "β5 subunit of human cCP (Homo sapiens, UniProt P20618+P28074)", "reported-property": "pIC50", "reported-measurement": 4.52}
{"compound": "CC(C)C[C@H](NC(=O)CCn1c(C#N)nc2ccccc21)B1O[C@@H]2C[C@@H]3C[C@@H](C3(C)C)[C@]2(C)O1 [Compound 30]", "target-or-system": "β5 subunit of human cCP (Homo sapiens, UniProt P20618+P28074)", "reported-property": "pIC50", "reported-measurement": 6.15}
{"compound": "CC(C)C[C@H](NC(=O)CCCn1c(C#N)nc2ccccc21)B1O[C@@H]2C[C@@H]3C[C@@H](C3(C)C)[C@]2(C)O1 [Compound 31]", "target-or-system": "β5 subunit of human cCP (Homo sapiens, UniProt P20618+P28074)", "reported-property": "pIC50", "reported-measurement": 4.89}
{"compound": "CC(C)C[C@H](NC(=O)Cc1ccc2oc(C#N)nc2c1)B(O)O [Compound 40]", "target-or-system": "β5 subunit of human cCP (Homo sapiens, UniProt P20618+P28074)", "reported-property": "pIC50", "reported-measurement": 5.70}
{"compound": "CC(C)C[C@H](NC(=O)CCCCn1c(C#N)nc2ccccc21)B1O[C@@H]2C[C@@H]3C[C@@H](C3(C)C)[C@]2(C)O1 [Compound 32]", "target-or-system": "β5 subunit of human cCP (Homo sapiens, UniProt P20618+P28074)", "reported-property": "pIC50", "reported-measurement": 5.80}

====

target-or-system: β5i subunit of human iCP (Homo sapiens, UniProt P20618+P28062)
Construct: purchased Boston Biochem, Inc., Cambridge, MA, USA
test-details: Inhibition of β5i activity (RA at 10 µM, IC50, IC50 shift), Suc-LLVY-AMC
Format: biochemical
condition-notes: 30 min pre-incubation, SDS activator; read-out: IC50 (µM), β5i
Procedure: Residual activity measurements were performed at 10 μM final concentrations in the assay buffer (0.01% SDS, 50 mM Tris-HCl, 0.5 mM EDTA, pH 7.4). Stock solutions of the compounds were prepared in DMSO. To 50 μL of each compound in buffer, 25 μL of 0.8 nM human iCP or human cCP (both from Boston Biochem, Inc., Cambridge, MA, USA) were added. […] Reaction progress was recorded on BioTek Synergy HT microplate reader by monitoring fluorescence at 460 nm (λex = 360 nm) for 90 min at 37 °C. […]
# IC50 values compiled below
reported-property: IC50

{"smiles-entry": "CC(=O)Oc1cccc2oc(C#N)nc12", "target-or-system": "β5i subunit of human iCP (Homo sapiens, UniProt P20618+P28062)", "reported-property": "IC50", "reported-measurement": "19 µM"}
{"smiles-entry": "CC(C)C[C@H](NC(=O)CCCCn1c(C#N)nc2ccccc21)B1O[C@@H]2C[C@@H]3C[C@@H](C3(C)C)[C@]2(C)O1", "target-or-system": "β5i subunit of human iCP (Homo sapiens, UniProt P20618+P28062)", "reported-property": "IC50", "reported-measurement": "13 µM"}
{"smiles-entry": "CC(C)C[C@H](NC(=O)CCCn1c(C#N)nc2ccccc21)B(O)O", "target-or-system": "β5i subunit of human iCP (Homo sapiens, UniProt P20618+P28062)", "reported-property": "IC50", "reported-measurement": "7.9 µM"}
{"smiles-entry": "CC(C)C[C@H](NC(=O)CCCCn1c(C#N)nc2ccccc21)B(O)O", "target-or-system": "β5i subunit of human iCP (Homo sapiens, UniProt P20618+P28062)", "reported-property": "IC50", "reported-measurement": "59 µM"}

====

target-or-system: β5i subunit of human iCP (Homo sapiens, UniProt P20618+P28062)
Construct: purchased Boston Biochem, Inc., Cambridge, MA, USA
test-details: Inhibition of β5i activity (RA at 10 µM, IC50, IC50 shift), Suc-LLVY-AMC
Type: biochemical
condition-notes: IC50 (µM), β5i, 60-min pre-incubation, 60 min pre-incubation (IC50 shift)

{"smiles-entry": "N#Cc1nc2c(O)cccc2o1", "IC50, µM": 0.5}

====

test-details: HPLC-based stability assay in PBS
Assay type: physicochemical
condition-notes: PBS pH 7.4
Procedure: GSH reactivity assay was performed as described by Petri et al.; 500 μM solution of compound (PBS buffer pH 7.4, 10% MeCN, 250 μL) with 200 μM solution of indoprofen as internal standard were added to 10 mM GSH solution (dissolved in PBS buffer, 250 μL) in a 1:1 ratio. […] The final mixture was analyzed by HPLC after 0, 1, 2, 4, 8, 12, 24, 48, and 72 h. […] The area under the curve (AUC) values were determined by integrating the HPLC spectra and then corrected with the internal standard.
reported-property: Stability in Buffer (HPLC-based assay)

{"smiles-entry": "N#Cc1nc2ccc(NC(=O)c3ccccc3)cc2o1", "reported-measurement": "stable"}
{"smiles-entry": "CC(C)C[C@H](NC(=O)CCn1c(C#N)nc2ccc(Cl)cc21)B1O[C@@H]2C[C@@H]3C[C@@H](C3(C)C)[C@]2(C)O1", "reported-measurement": "stable"}
{"smiles-entry": "COc1cccc2oc(C#N)nc12", "reported-measurement": "stable ^c,d"}
{"smiles-entry": "N#Cc1nc2ccc(N)cc2o1", "reported-measurement": "stable ^c,d"}
{"smiles-entry": "COc1ccc2nc(C#N)oc2c1", "reported-measurement": "stable"}
{"smiles-entry": "CC(C)C[C@H](NC(=O)CCCCn1c(C#N)nc2ccccc21)B1O[C@@H]2C[C@@H]3C[C@@H](C3(C)C)[C@]2(C)O1", "reported-measurement": "stable"}

====

target-or-system: hMAO-B (Homo sapiens)
Construct: purchased Sigma Aldrich; host or cells: BTI-TN-5B1-4 insect cells
Sequence (P27338 1-520): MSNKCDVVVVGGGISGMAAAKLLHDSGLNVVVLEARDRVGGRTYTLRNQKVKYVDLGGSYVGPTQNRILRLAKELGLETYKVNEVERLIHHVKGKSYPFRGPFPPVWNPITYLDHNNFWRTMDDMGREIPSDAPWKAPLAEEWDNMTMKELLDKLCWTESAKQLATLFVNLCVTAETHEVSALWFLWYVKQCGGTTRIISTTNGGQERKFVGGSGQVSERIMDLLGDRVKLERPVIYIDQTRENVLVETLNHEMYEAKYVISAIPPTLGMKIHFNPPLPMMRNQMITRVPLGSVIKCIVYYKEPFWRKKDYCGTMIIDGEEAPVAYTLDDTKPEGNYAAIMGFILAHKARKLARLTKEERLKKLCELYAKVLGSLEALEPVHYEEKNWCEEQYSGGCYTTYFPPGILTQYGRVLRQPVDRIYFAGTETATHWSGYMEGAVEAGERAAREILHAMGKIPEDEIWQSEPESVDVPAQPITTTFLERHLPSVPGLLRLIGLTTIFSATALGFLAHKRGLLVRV
test-details: Monoamine oxidase assay, hMAO-B
Format: biochemical
condition-notes: 30 min pre-incubation, read-out: Residual activity [%] ± SD, hMAO-B
# strict inequality: remaining activity at 100 µM < 40% yields label 1, everything else yields label 0

{"molecule": "N#Cc1nc2cc(O)ccc2o1 [Compound 11]", "discrete-label": "label 1"}
{"molecule": "N#Cc1nc2c(O)cccc2o1 [Compound 10]", "discrete-label": "label 0"}
{"molecule": "CC(C)C[C@H](NC(=O)CCn1c(C#N)nc2ccccc21)B(O)O [Compound 34]", "discrete-label": "label 0"}
{"molecule": "COc1cccc2oc(C#N)nc12 [Compound 6]", "discrete-label": "label 1"}
{"molecule": "CC(=O)Oc1ccc2oc(C#N)nc2c1 [Compound 15]", "discrete-label": "label 1"}
{"molecule": "C=Cc1nc(CC(=O)N[C@@H](CC(C)C)B2O[C@@H]3C[C@@H]4C[C@@H](C4(C)C)[C@]3(C)O2)cs1 [Compound 28]", "discrete-label": "label 0"}
{"molecule": "CC(C)C[C@H](NC(=O)Cc1ccc2oc(C#N)nc2c1)B(O)O [Compound 40]", "discrete-label": "label 0"}
{"molecule": "CC(=O)Oc1cccc2oc(C#N)nc12 [Compound 14]", "discrete-label": "label 0"}
{"molecule": "CC(C)C[C@H](NC(=O)CCn1c(C#N)nc2cccc(Cl)c21)B1O[C@@H]2C[C@@H]3C[C@@H](C3(C)C)[C@]2(C)O1 [Compound 38]", "discrete-label": "label 0"}
{"molecule": "CC(C)C[C@H](NC(=O)CCCn1c(C#N)nc2ccccc21)B(O)O [Compound 35]", "discrete-label": "label 0"}
{"molecule": "CC(C)C[C@H](NC(=O)CCn1c(C#N)nc2ccccc21)B1O[C@@H]2C[C@@H]3C[C@@H](C3(C)C)[C@]2(C)O1 [Compound 30]", "discrete-label": "label 0"}
{"molecule": "CC(C)C[C@H](NC(=O)Cc1ccc2oc(C#N)nc2c1)B1O[C@@H]2C[C@@H]3C[C@@H](C3(C)C)[C@]2(C)O1 [Compound 39]", "discrete-label": "label 0"}
{"molecule": "CC(C)C[C@H](NC(=O)CCCn1c(C#N)nc2ccccc21)B1O[C@@H]2C[C@@H]3C[C@@H](C3(C)C)[C@]2(C)O1 [Compound 31]", "discrete-label": "label 0"}
{"molecule": "N#Cc1nc2cccc(O)c2o1 [Compound 13]", "discrete-label": "label 0"}
